# System: MRSA strain BB568
# Assay Procedure: CLSI broth microplate assay, MIC
# Type: cell-based
# Measurement Conditions: Staphylococcus aureus, BB568, Mueller-Hinton broth, 37° C., read-out: Minimum inhibitory concentration (MIC mg/L) BB568

Smi	Test System	MIC
COC(=O)c1cc(NC(=O)c2cc(-c3ccc(NC(=O)CCCOc4cc5c(cc4OC)C(=O)N4CCC[C@H]4C=N5)cc3)co2)cn1C	MRSA strain BB568	0.125 mg/L
COc1cc2c(cc1OCCCC(=O)Nc1cc(C(=O)Nc3ccc(N4CCOCC4)cc3)n(C)c1)N=C[C@@H]1CCCN1C2=O	MRSA strain BB568	2 mg/L
COc1cc2c(cc1OCCCC(=O)Nc1ccc(-c3cc(C(=O)Nc4ccc(OCCN5CCOCC5)cc4)n(C)c3)cc1)N=C[C@@H]1CCCN1C2=O	MRSA strain BB568	2 mg/L
COc1cc2c(cc1OCCCC(=O)Nc1cc(C(=O)Nc3ccc4sccc4c3)n(C)c1)N=C[C@@H]1CCCN1C2=O	MRSA strain BB568	0.125 mg/L
COc1cc2c(cc1OCCCC(=O)Nc1cn(C)c(C(=O)Nc3ccc(OCCN4CCOCC4)cc3)n1)N=C[C@@H]1CCCN1C2=O	MRSA strain BB568	0.25 to 0.5 mg/L

----------
Consider the following compounds and their measured MIC readings.
# Tested on: MRSA strain EMRSA-15
# Assay Procedure: CLSI broth microplate assay, MIC
# Format: cell-based
# Measurement Conditions: Staphylococcus aureus, read-out: Minimum inhibitory concentration (MIC mg/L) EMRSA-15

Compound	Units Symbol	Qualifier Symbol	MIC
COc1cc2c(cc1OCCCC(=O)Nc1ccc(-c3cc(C(=O)Nc4ccc(N5CCOCC5)nc4)n(C)c3)cc1)N=C[C@@H]1CCCN1C2=O	mg/L	=	1
COc1cc2c(cc1OCCCC(=O)Nc1cn(C)c(C(=O)Nc3ccc(N4CCOCC4)nc3)n1)N=C[C@@H]1CCCN1C2=O	mg/L	=	0.125
COC(=O)c1cc2cc(NC(=O)c3cc(NC(=O)CCCOc4cc5c(cc4OC)C(=O)N4CCC[C@H]4C=N5)cn3C)ccc2s1	mg/L	=	0.06
COc1cc2c(cc1OCCCC(=O)Nc1ccc(-c3cc(C(=O)Nc4ccc(N5CCOCC5)cc4)n(C)c3)cc1)N=C[C@@H]1CCCN1C2=O	mg/L	=	2
COC(=O)c1ccc(-c2ccc(NC(=O)CCCOc3cc4c(cc3OC)C(=O)N3CCC[C@H]3C=N4)cc2)s1 [Compound 18, reference compound]	mg/L	>	32

----------
# Tested on: E. faecium VRE10
# Assay Procedure: CLSI broth microplate assay, MIC
# Assay type: cell-based
# Measurement Conditions: Enterococcus faecium, VRE10, read-out: Minimum inhibitory concentration (MIC mg/L) VRE10
Consider the following compounds and their measured MIC readings.
Readout Kind: MIC

Compound	Measured Value
COC(=O)c1cc2cc(NC(=O)c3cc(NC(=O)CCCOc4cc5c(cc4OC)C(=O)N4CCC[C@H]4C=N5)cn3C)ccc2s1	0.06 mg/L
COC(=O)c1cc(-c2ccc(NC(=O)c3cc(-c4ccc(NC(=O)CCCOc5cc6c(cc5OC)C(=O)N5CCC[C@H]5C=N6)cc4)co3)cc2)cn1C	0.25 mg/L
COC(=O)c1ccc(-c2ccc(NC(=O)CCCOc3cc4c(cc3OC)C(=O)N3CCC[C@H]3C=N4)cc2)s1 [Compound 18, reference compound]	16 mg/L
COc1cc2c(cc1OCCCC(=O)Nc1cn(C)c(C(=O)Nc3ccc(N4CCOCC4)nc3)n1)N=C[C@@H]1CCCN1C2=O	0.125 mg/L
COC(=O)c1cc(NC(=O)c2cc(NC(=O)c3cc(NC(=O)c4cc(NC(=O)c5cc(-c6ccc(NC(=O)CCCOc7cc8c(cc7OC)C(=O)N7CCC[C@H]7C=N8)cc6)cn5C)cn4C)cn3C)cn2C)cn1C	4 mg/L
COc1cc2c(cc1OCCCC(=O)Nc1ccc(-c3cc(C(=O)NCc4ccc(OCCN5CCOCC5)cc4)n(C)c3)cc1)N=C[C@@H]1CCCN1C2=O	1 mg/L
COc1cc2c(cc1OCCCC(=O)Nc1ccc(-c3cc(C(=O)Nc4ccc(N5CCOCC5)cc4)n(C)c3)cc1)N=C[C@@H]1CCCN1C2=O	0.5 to 1 mg/L
COc1cc2c(cc1OCCCC(=O)Nc1ccc(-c3cc(C(=O)Nc4ccc(N5CCOCC5)nc4)n(C)c3)cc1)N=C[C@@H]1CCCN1C2=O	0.5 mg/L
COc1cc2c(cc1OCCCC(=O)Nc1cn(C)c(C(=O)Nc3ccc(N4CCOCC4)cc3)n1)N=C[C@@H]1CCCN1C2=O	0.125 mg/L
COC(=O)c1cc2cc(NC(=O)c3nc(NC(=O)CCCOc4cc5c(cc4OC)C(=O)N4CCC[C@H]4C=N5)cn3C)ccc2s1	0.06 mg/L
COc1cc2c(cc1OCCCC(=O)Nc1cc(C(=O)Nc3ccc(N4CCOCC4)nc3)n(C)c1)N=C[C@@H]1CCCN1C2=O	0.5 mg/L
